Molecular target: SPOCK1
Assay: pooled miR-30 sensor sort-seq; sequence = guide strand; note: reference of the scale not given here
Conditions: shRNA
Classify by measured sensor-assay potency score (higher = more potent): TRUE if it is equal to or exceeds -1, FALSE if it is smaller.

[
  {
    "PRIMARY_SEQUENCE": "TCCAACTTGTTGAACATCCAGC",
    "LABEL_VALUE": "FALSE"
  }
]

Exam item: decide whether the reported sensor-assay potency score (higher = more potent) for `TTGTCTGTGCAGGCACTCCTTT` is at least -1.
TRUE

Exam item: decide whether the reported sensor-assay potency score (higher = more potent) for `TCATAGTTCATGTCCAACTTGT` is at least -1.
TRUE

Exam item: decide whether the reported sensor-assay potency score (higher = more potent) for `TAATCATCGTCTCGAAAGCGGT` is at least -1.
FALSE

Exam item: decide whether the reported sensor-assay potency score (higher = more potent) for `TTGCACTTGACCAAATTCGAAG` is at least -1.
FALSE

Exam item: decide whether the reported sensor-assay potency score (higher = more potent) for `TTCCGCAACTCCTTGTCTGTGC` is at least -1.
TRUE

====

Molecular target: ACTL6A
Assay: pooled miR-30 sensor sort-seq; sequence = guide strand
Details: shRNA
Recorded sensor-assay potency score (higher = more potent) for the following sequences

// known answers, use as guide
[
  {
    "PRIMARY_SEQUENCE": "TTGTGTTTCCTGATAACCCCTT",
    "OBSERVED": 0.282
  },
  {
    "PRIMARY_SEQUENCE": "TAATTGTGCCAAGACCTCGTAA",
    "OBSERVED": -0.587
  },
  {
    "PRIMARY_SEQUENCE": "TGACTGACTCCTAACATTGTGT",
    "OBSERVED": -0.541
  }
]

Entry under test: `TTGCTTGGAAATCCACATCTGT` . Its sensor-assay potency score (higher = more potent) was -0.451

Entry under test: `ATAGCTTGGAAACTATCCCAGT` . Its sensor-assay potency score (higher = more potent) was -0.733

Entry under test: `TTACACATATAATTGTGCCAAG` . Its sensor-assay potency score (higher = more potent) was -1.42

====

Recorded sensor-assay potency score (higher = more potent) for the following sequences
Target: RECQL4
Assay: pooled miR-30 sensor sort-seq; sequence = guide strand
Settings: shRNA
Returns: the value as a bare number; no unit string appended.

[
  {
    "PRIMARY_SEQUENCE": "TTTCTTCCGCCACTTCTGCTTC",
    "STUDY_TARGET": "RECQL4",
    "OBSERVED": -1.04
  },
  {
    "PRIMARY_SEQUENCE": "TTGGTTGTGACTGTGGCACCAC",
    "STUDY_TARGET": "RECQL4",
    "OBSERVED": 0.278
  }
]

Please look at the following sequence next.
Entry under test: `TTCAGGAAACAAGACTCCTTGG` . Its sensor-assay potency score (higher = more potent) was -0.807

====

Biological target: ZKSCAN4
Assay: pooled miR-30 sensor sort-seq; sequence = guide strand
Conditions: shRNA
Recorded sensor-assay potency score (higher = more potent) for the following sequences

[
  {
    "PRIMARY_SEQUENCE": "TTCCACAGTCTTCACATTCATA",
    "OBSERVED": -1.13
  },
  {
    "PRIMARY_SEQUENCE": "TTTAGGTCCTACAACTTCCAGA",
    "OBSERVED": -0.127
  },
  {
    "PRIMARY_SEQUENCE": "TTGACTGGAGGCAAGTCCCTGC",
    "OBSERVED": 0.176
  }
]

Please look at the following sequence next.
Entry under test: `TGAGCTGTGACTGAAGACCTTA` . Its sensor-assay potency score (higher = more potent) was 0.0781

====

Recorded sensor-assay potency score (higher = more potent) for the following sequences
Molecular target: ANK1
Assay: pooled miR-30 sensor sort-seq; sequence = guide strand
Details: shRNA
Returns: the value as a bare number; no unit string appended.

// known answers, use as guide
[
  {
    "PRIMARY_SEQUENCE": "TTCATCTTCCGAGACATCCAGG",
    "STUDY_TARGET": "ANK1",
    "OBSERVED": -0.548
  },
  {
    "PRIMARY_SEQUENCE": "TTAGTGACAAGCTCATCCGGGA",
    "STUDY_TARGET": "ANK1",
    "OBSERVED": -0.401
  }
]

Please look at the following sequence next.
Reported sensor-assay potency score (higher = more potent) (ANK1) for entry `TATTCTGAAACTCATTCCCCTG` is -1.12

====

Molecular target: ZNF517
Assay: pooled miR-30 sensor sort-seq; sequence = guide strand
Conditions: shRNA
ASSAY_READOUT: sensor-assay potency score (higher = more potent)
Returns: the value as a bare number; no unit string appended.

[
  {
    "PRIMARY_SEQUENCE": "TTCTCTGCAGAGGAGACTCCAT",
    "OBSERVED": -1.52
  },
  {
    "PRIMARY_SEQUENCE": "TTGTGAAGTACACAGCCACATC",
    "OBSERVED": -1.38
  }
]

Entry under test: `TCCTTGTGAAGTACACAGCCAC` . Its sensor-assay potency score (higher = more potent) was -1.39

Entry under test: `TTCAGCGTGTAGCTCCTGCGGA` . Its sensor-assay potency score (higher = more potent) was -0.596

====

Molecular target: DTNBP1
Assay: pooled miR-30 sensor sort-seq; sequence = guide strand
Conditions: shRNA
Classify by measured sensor-assay potency score (higher = more potent): met if it is equal to or exceeds -0.4, not met if it is smaller.

Please review the following examples before continuing.
[
  {
    "PRIMARY_SEQUENCE": "TCATCGGACTGAACAACGGGGG",
    "STUDY_TARGET": "DTNBP1",
    "LABEL_VALUE": "met"
  },
  {
    "PRIMARY_SEQUENCE": "TGACTTGTCACTTAAAGTCTTC",
    "STUDY_TARGET": "DTNBP1",
    "LABEL_VALUE": "not met"
  },
  {
    "PRIMARY_SEQUENCE": "TTTTCTTGTAATTCTCCAGTTG",
    "STUDY_TARGET": "DTNBP1",
    "LABEL_VALUE": "met"
  }
]

Exam item: decide whether the reported sensor-assay potency score (higher = more potent) for `TAAAACAACCTGGCTTTCCAGG` is at least -0.4.
not met

Exam item: decide whether the reported sensor-assay potency score (higher = more potent) for `TTCCTCAAAAAACTTCTGCCGC` is at least -0.4.
not met

====

Recorded sensor-assay potency score (higher = more potent) for the following sequences
Target: CD40
Experiment: pooled miR-30 sensor sort-seq; sequence = guide strand
Conditions: shRNA
Returns: the value as a bare number; no unit string appended.

[
  {
    "PRIMARY_SEQUENCE": "TGTAGCAATCTGCTTGACCCCA",
    "OBSERVED": -0.6
  },
  {
    "PRIMARY_SEQUENCE": "TTCTTCACAGGTGCAGATGGTG",
    "OBSERVED": -0.762
  },
  {
    "PRIMARY_SEQUENCE": "TGACTGTTTATTAGGTACTGTT",
    "OBSERVED": -0.925
  },
  {
    "PRIMARY_SEQUENCE": "TTTGATAAAGACCAGCACCAAG",
    "OBSERVED": -1.36
  },
  {
    "PRIMARY_SEQUENCE": "TTTTCTCTGCATGCAGTGGGTG",
    "OBSERVED": -0.932
  }
]

Entry under test: `TATTAGGTACTGTTTTTCTCTG` . Its sensor-assay potency score (higher = more potent) was -0.885

Entry under test: `TCTCCTGCACTGGAGCAGCAGT` . Its sensor-assay potency score (higher = more potent) was -1.54

====

Recorded sensor-assay potency score (higher = more potent) for the following sequences
Biological target: ALAD
Experiment: pooled miR-30 sensor sort-seq; sequence = guide strand
Conditions: shRNA
Returns: the value as a bare number; no unit string appended.

// known answers, use as guide
[
  {
    "PRIMARY_SEQUENCE": "TATGTCATCAGGAACATCCGTG",
    "OBSERVED": 0.268
  },
  {
    "PRIMARY_SEQUENCE": "ACATCCGTGACAAAGATGGGGT",
    "OBSERVED": 0.0537
  }
]

Please look at the following sequence next.
Reported sensor-assay potency score (higher = more potent) (ALAD) for entry `TCGTCCTTGGGAACTCTGCTGG` is -1.05
